test protocol: chemical genetic growth profiling, strain panel (AID 1159580);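 further: tested at 20 µM; growth read once vehicle control cultures reached saturation at 30 °C; 1 = growth at the plate median or of vehicle wells; lower values mean less growth of the strain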
condition parameters: S. cerevisiae deletion strains, growth OD, locus YKR091W, strain srl3, stronger effect = lower value
The whole screen tested about 5,500 compounds, of which about 2,000 (36%) were called active. Inconclusive results (about 18%) are left out. The list shows a part of the results.
Entries and their normalized growth
Kindly provide the number alone.

Field: example entries. Status: answers known.
COc1ccc2nc(S(=O)Cc3ncc(C)c(OC)c3C)[nH]c2c1 (stereo not drawn) | 1.02
CC(=O)O[C@@H]1CC2C(C)(C)C(=O)C3OC3[C@]2(C)C2CC[C@@]3(C)[C@H](c4ccoc4)OC(=O)C4OC43[C@@]21C (stereo partly drawn) | 0.982

Query: Reported normalized growth, compound `Cc1nnc(NS(=O)(=O)c2ccc(N)cc2)s1` : ____
Reply: 0.99
